Source: BigSolDB 2.1

- Experimental Conditions: in n-hexane, 308.15 K
Measure: solubility (mole fraction)
Give bare numbers.

The cases that follow already have their solubility (mole fraction) on record.
Asked: Record request: solubility (mole fraction) value, item CC(C)c1ccc(N=C2[Se]CC3CCCN2C3)cc1 (stereo not drawn)
Given back: 0.000725

Asked: Please answer likewise for Fc1ccc(N=C2[Se]CC3CCCN2C3)cc1 (stereo not drawn)
Given back: 0.00134

---
Asked: Form field: reported solubility (mole fraction) of Cc1ccc(N=C2[Se]CC3CCCN2C3)cc1Cl (stereo not drawn)
Given back: 0.000581

* * *

- Experimental Conditions: in n-hexane, 293.15 K
Measure: solubility (mole fraction)
One number for each entry.

Worked examples, 2 compounds total:
Asked: Return reported solubility (mole fraction); argument: Fc1ccc(N=C2[Se]CC3CCCN2C3)cc1 (stereo not drawn)
Given back: 0.00115

Asked: Now the compound CC(C)c1ccc(N=C2[Se]CC3CCCN2C3)cc1 (stereo not drawn)
Given back: 0.000481

Further cases:
Asked: solubility (mole fraction) for Cc1ccc(N=C2[Se]CC3CCCN2C3)cc1Cl (stereo not drawn) ?
Given back: 0.000536
